target: human plasma-derived FX (Haematologic Technologies Inc, USA) (human, UniProt P00742 41-179; P00742 183-488); test: cell-based or functional assay
Sequence (P00742 41-179, chain 1 of 2): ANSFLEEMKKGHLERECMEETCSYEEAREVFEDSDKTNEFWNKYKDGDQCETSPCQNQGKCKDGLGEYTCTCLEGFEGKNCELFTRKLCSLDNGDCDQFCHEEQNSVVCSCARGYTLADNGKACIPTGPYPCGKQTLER
Sequence (P00742 183-488, chain 2 of 2): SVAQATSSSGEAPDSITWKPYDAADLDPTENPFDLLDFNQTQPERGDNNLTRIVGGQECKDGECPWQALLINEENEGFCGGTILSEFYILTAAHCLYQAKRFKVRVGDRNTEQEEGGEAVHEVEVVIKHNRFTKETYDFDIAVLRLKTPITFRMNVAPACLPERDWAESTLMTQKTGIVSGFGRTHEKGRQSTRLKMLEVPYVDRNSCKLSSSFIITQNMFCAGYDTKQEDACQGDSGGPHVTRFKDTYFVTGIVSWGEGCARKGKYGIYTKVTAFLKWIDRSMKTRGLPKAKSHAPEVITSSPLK
Measured attribute: KM (nM) of FX activation by 0.1 nM FIXa on phospholipid vesicles with 5 nM compound
Give bare numbers, in nM.

Please review the entries below; each comes with its answer.
| Binder | Value unit | Quantitative readout |
| --- | --- | --- |
| Cmpd #6 (anti-FX/anti-FIX(a) VHH polypeptide derivative) (bispecific antibody, C16 diacid protractor (P2) via linker LP1 on Cys5 and Cys7 in C-term extension (SEQ ID NO: 8), Single chain of two VHH: anti-FX (N-terminal) and anti-FIX(a) (C-terminal)) DVQLVESGGGVVQPGGSLQLSCAASGRTHSRYAMGWFRQAPGQEREFVAAISRRGGSTNYADSVKGRFTISRDNSKNTVYLQMDSLRPEDTALYYCAADDSSGDGYLDYWGQGTLVTVSSGGGGSGGGSEVQLVESGGGVVQPGGSLQLSCAASGRTFNIYTMSWFRQAPGQEREFVAGLRWTDSSTEYADSVKGRFTISRDNSKNTVYLQMDSLRPEDTALYYCAADRSFLFAQALGATKNYEYWGQGTLVTVSSGGGGCSCHHHHHH | nM | 5.9 |
| Cmpd #16 (anti-FX/anti-FIX(a) VHH polypeptide derivative) (bispecific antibody, C16 diacid protractor (P2) via linker LP1 on Cys4 and Cys6 in C-term extension (SEQ ID NO: 9)) DVQLVESGGGVVQPGGSLQLSCAASGGTKRRLAMGWFRQAPGQEREWVAAISRRGGSTNYADSVKGRFTISRDNSKNTVYLDMDDLRPEDTALYYCAADDSVGDGYLDYWGQGTLVTVSSGQAPGQEVQLVESGGGVVQPGGSLRLSCAASGRYFNIYTMSWFRQDPGQEREFVAGLRWTDSSTEYADSVKGRFTISRDNSKNTVYLQMNSLRPEDTALYYCAADRSFLFAQALGATKNYEYWGQGTLVTVSSGQACPC | nM | 7.1 |

Alright, here's another binder for you.
query: Give reported KM (nM) of FX activation by 0.1 nM FIXa on phospholipid vesicles with 5 nM compound value for Cmpd #8 (anti-FX/anti-FIX(a) VHH polypeptide derivative) (bispecific antibody, C16 diacid protractor (P2) via linker LP1 on Cys4 and Cys6 in C-term extension (SEQ ID NO: 9), Single chain of two VHH: anti-FX (N-terminal) and anti-FIX(a) (C-terminal)) DVQLVESGGGVVQPGGSLQLSCAASGGTKSRYAMGWFRQAPGQEREFVAAISRRGGSTNYADSVKGRFTISRDNSKNTVYLQMDSLRPEDTALYYCAADDSVGDGYLDYWGQGTLVTVSSGQAPGQEVQLVESGGGVVQPGGSLQLSCAASGRTFNIYTMSWFRQAPGQEREFVAGLRWTDSSTEYADSVKGRFTISRDNSKNTVYLQMDSLRPEDTALYYCAADRSFLFAQALGATKNYEYWGQGTLVTVSSGQACPC
result: 4.8
